Target: UniProt P47989
Sequence (P47989 whole entry, species assumed): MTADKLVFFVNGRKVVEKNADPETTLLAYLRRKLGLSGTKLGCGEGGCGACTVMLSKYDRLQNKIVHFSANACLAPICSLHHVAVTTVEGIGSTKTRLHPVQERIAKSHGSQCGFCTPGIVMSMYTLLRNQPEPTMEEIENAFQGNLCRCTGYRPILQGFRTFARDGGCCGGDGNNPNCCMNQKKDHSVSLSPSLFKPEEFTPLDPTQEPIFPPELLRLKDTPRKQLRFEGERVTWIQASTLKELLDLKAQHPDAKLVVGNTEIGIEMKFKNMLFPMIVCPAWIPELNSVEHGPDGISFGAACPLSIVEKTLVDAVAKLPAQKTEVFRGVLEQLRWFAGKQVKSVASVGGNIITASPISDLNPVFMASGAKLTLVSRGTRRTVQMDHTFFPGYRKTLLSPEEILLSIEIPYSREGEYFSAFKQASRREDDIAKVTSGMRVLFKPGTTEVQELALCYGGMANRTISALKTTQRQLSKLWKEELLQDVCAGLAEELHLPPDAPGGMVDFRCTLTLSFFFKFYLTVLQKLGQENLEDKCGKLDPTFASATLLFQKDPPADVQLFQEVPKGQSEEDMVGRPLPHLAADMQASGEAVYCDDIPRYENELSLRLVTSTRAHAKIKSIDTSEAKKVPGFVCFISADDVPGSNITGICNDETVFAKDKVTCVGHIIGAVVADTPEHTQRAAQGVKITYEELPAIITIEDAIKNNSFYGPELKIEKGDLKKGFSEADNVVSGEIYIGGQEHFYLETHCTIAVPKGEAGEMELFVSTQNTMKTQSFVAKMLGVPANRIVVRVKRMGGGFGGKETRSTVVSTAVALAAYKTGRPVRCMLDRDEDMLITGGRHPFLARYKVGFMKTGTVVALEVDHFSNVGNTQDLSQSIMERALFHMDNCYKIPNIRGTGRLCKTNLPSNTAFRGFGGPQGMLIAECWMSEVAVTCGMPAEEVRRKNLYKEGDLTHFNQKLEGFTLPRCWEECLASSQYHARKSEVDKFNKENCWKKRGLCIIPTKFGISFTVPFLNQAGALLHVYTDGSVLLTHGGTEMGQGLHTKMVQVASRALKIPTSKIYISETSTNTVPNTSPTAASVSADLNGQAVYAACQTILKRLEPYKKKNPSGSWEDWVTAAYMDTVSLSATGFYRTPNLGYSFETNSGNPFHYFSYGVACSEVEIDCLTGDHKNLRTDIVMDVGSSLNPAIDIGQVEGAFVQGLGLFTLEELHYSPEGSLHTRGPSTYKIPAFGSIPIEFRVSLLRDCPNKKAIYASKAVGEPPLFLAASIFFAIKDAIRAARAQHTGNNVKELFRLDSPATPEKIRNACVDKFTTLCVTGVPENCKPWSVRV
Experiment: Action of the derivatives on xanthine oxidase
Type: biochemical
Settings: product at 100 μM; UV at 290 nm; read-out: % inhibition 100 μM
outcome.measure: inhibition at 100 µM (%)
Could you give me the number in %? Just the number is fine.

Observe how each entry below is paired with its result.
Cl.NC1CCCc2sccc21 (stereo not shown)    -15
Cl.c1cc2c(s1)CCCC2N1CCSCC1 (stereo not shown)    -7
Cl.c1cc2c(s1)SCCC2N1CCOCC1 (stereo not shown)    7

INPUT: What value of inhibition at 100 µM has been recorded for this entry: CN1CCN(C2CCCc3sccc32)CC1 (stereo not shown)
OUTPUT: -15
